Tested target: Glycogen synthase 1 (GYS1) (Homo sapiens, UniProt P13807)
Sequence (P13807 1-737): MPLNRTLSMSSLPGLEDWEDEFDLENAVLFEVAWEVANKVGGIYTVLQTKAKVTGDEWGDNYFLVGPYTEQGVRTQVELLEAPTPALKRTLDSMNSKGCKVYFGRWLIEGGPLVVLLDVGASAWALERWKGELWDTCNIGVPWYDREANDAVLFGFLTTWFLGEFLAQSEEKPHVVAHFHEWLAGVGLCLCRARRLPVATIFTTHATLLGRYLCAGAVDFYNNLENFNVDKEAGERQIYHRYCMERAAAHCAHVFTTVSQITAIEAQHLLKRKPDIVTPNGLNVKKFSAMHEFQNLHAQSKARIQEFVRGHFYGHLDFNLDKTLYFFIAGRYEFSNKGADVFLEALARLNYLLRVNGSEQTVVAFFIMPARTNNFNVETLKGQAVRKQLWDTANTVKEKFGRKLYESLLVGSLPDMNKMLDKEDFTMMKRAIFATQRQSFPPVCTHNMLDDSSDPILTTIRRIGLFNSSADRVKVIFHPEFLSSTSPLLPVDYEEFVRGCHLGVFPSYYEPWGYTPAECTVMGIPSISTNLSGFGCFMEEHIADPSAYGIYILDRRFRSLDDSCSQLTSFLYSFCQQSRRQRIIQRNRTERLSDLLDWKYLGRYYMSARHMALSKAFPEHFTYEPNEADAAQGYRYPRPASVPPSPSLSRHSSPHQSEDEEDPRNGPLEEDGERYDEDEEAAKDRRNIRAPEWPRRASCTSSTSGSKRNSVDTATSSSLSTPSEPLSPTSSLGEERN
Sequence (P46976 2-350 partner): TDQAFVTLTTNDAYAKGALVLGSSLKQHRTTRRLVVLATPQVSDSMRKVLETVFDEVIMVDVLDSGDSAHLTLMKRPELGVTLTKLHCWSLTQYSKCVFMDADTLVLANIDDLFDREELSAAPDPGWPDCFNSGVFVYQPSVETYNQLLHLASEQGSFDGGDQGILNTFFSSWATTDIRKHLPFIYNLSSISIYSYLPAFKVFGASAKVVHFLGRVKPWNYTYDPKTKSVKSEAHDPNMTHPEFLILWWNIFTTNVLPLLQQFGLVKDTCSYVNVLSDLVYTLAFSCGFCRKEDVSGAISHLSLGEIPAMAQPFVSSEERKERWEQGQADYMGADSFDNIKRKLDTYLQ
Method: PK/LDH coupled enzyme assay with recombinant GYS1 in the presence of G6P
Measured property: pIC50
// scale note: pIC50 = -log10(conc_M); give the bare number

q: Assign pIC50 to the following record: CC(C)c1ccc([C@@H](NC(=O)[C@@H]2C[C@@H](F)CN2C(=O)Cc2cn[nH]n2)c2ccccc2)cc1
a: 7.39
